# tested.on: T1, T cell receptor (TCR) Vγ9 (TRGV9) (human, UniProt Q99603 21-122)
# T1 chain (looked up): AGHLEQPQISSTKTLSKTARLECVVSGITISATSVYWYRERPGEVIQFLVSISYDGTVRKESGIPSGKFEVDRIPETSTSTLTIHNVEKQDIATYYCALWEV
# experimental.protocol: cell-based or functional assay; also: unit not given here
Each entry below lists one item and its recorded TNFα, Luminex (supernatant) value.
Answer using only a numeral; do not append any unit.

Some solved cases for reference:
{"columns": ["binder", "TNFα, Luminex (supernatant)"],
 "data": [
  ["VG9B463 (antibody, human IgG1, lambda, V domains shown) VH: EVQLVESGGGLVKPGGSLRLSCSASGFTFSNYDMNWVRQAPGKGLEWVSSISSSSSYIYYADSVKGRFTISRDNAKNSLYLQMNSLRAEDTAVYHCARDVGVTTDYYYYGMDVWGQGTTVTVSS VL: QPVLTQSSSASGTPGQRVTISCSGSSSNIGSNTVNWYQQFPGTAPKLLIYTNTQRPSGVPDRFSGSKSGTLVSLAISGLQSEDEADYYCAAWDDSLNAWVFGGGTKLTVLG", 2110],
  ["VG9B98 (antibody, human IgG1, kappa, V domains shown) VH: EVQLVQSGGDLVKSGGSLRLSCAASGFTFSSYSMYWVRQAPGKGLEWVSSIGSSSTYIFYADSVKGRFTISRDNAMTSLYLQMNRLGAEDSAVYYCARDGELGPFEYWGQGTLVTVSS VL: EIVLTQSPGTLSLSPGERATLSCRASQSVSTSYLAWFQQKPGQAPRLLIFGTSSRATGIPDRFSGSGSGTDFTLTISRLEPEDFAVYHCLQYGRSPLTFGGGTKVDIKR", 2010],
  ["VG9B104 (antibody, human IgG1, kappa, V domains shown) VH: EVQLVESGGGLVKPGGSLRLSCAASGFTFSVYSMNWVRQAPGKGLEWVSSIGSSSSYIFYADSVKGRFTISRDNAKNSLYLQMNSLRAEDTAVYYCGRDHDYGGLDYWGQGTLVTVSS VL: EIVLTQSPGTLSLSPGERATLSCRASQSVSSSYLAWYQQKPGQAPRLLIYGPSNRATDIPDRFSGTGSGTDFTLTISRLEPEDFAVYYCQQYGRSPLTFGGGTKVEIKR", 4130]
]}

With those in mind, consider the next binder.
// Input: VG9B73 (antibody, human IgG1, kappa, V domains shown) VH: EVQLVQSGGGLVKPGGSLRLSCAASGFTFSNYDMNWVRQAPGKGLEWVSSISSSSSYIYYADSVKGRFTISRDNARNSLFLQMSSLRAEDTAVYYCAREIGVTGTTYYQDYGMDVWGQGTTVTVSS VL: EIVMTQSPGTLSLSPGERATLSCRASQSFSSNYLAWYQQKPGQAPRLLIYGASSRATGIPDRFSGSGSGTDFTLTISRLEPEDFALYYCQQYGSSPPFTFGQGTKVEIKR . Output its TNFα, Luminex (supernatant) only.
136
